Each item that follows carries a reported %HSA.
Biological target: human serum albumin (HSA) (Homo sapiens, UniProt P02768)
Sequence (P02768 25-609): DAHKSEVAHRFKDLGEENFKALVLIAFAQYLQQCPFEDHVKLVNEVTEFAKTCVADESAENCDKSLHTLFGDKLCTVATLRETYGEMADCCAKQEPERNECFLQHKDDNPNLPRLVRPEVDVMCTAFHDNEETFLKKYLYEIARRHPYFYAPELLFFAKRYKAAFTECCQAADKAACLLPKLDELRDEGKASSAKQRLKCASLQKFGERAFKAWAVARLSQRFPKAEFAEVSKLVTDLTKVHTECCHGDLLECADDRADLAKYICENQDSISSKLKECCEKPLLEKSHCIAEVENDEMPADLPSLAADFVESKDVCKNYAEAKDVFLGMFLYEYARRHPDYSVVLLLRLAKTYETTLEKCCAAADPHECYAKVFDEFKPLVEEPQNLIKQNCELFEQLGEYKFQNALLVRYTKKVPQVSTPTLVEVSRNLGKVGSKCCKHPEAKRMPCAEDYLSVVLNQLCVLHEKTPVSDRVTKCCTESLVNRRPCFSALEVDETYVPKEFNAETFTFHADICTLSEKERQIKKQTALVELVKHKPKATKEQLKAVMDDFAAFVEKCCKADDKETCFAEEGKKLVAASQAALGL
Experiment: HSA-HPLC, biomimetic chromatography on Chiralpak HSA column
Assay type: in vitro ADME
Design: purchased Daicel Chiral Technologies, West Chester, PA, USA
Conditions: pH 7.4, recalculated from logKHSA
Report as a plain number; the unit % is understood.

COc1ccc(N2CCN(CCCCCCN3C(=O)c4ccccc4S3(=O)=O)CC2)cc1 ... 82.67
COc1ccccc1N1CCN(CCCCN2C(=O)c3ccccc3S2(=O)=O)CC1 ... 99.13

Form field, %HSA with human serum albumin (HSA) (Homo sapiens, UniProt P02768), item "O=C1c2ccccc2S(=O)(=O)N1CCCCN1CCN(c2ccc(Cl)cc2)CC1" : 96.38

Record "O=C1c2ccccc2S(=O)(=O)N1CCCCCCN1CCN(c2ncccn2)CC1" ; system human serum albumin (HSA) (Homo sapiens, UniProt P02768); %HSA = 47.66

Case "O=C1c2ccccc2S(=O)(=O)N1CCCCCN1CCN(c2cccc(Cl)c2Cl)CC1" , human serum albumin (HSA) (Homo sapiens, UniProt P02768), %HSA recorded as 99.31
